Entries annotated with measured apparent KD of MS2 coat protein
Tested on: MS2 coat protein
experiment summary: apparent KD of MS2 coat protein; designed switch direction (-1 OFF switch, 1 ON switch): -1; higher = weaker reporter binding
stated conditions: Eterna round: R95; input ligand: FMN 200 uM
metric: apparent KD of MS2 coat protein (nM)

INSERT INTO results (construct_sequence, experimental_result) VALUES
  ('GAAAAGGUAGGAUAUACGAAAAGAAAGGGUAGAAAGAAAACACAUGAGGAUCACCCAUGUAGAAGGACCAAAAG [salish99_ex2_r3_095] (puzzle: Exclusion 2)', 37.3),
  ('GUAGAGUAAGGAUAUCAUGAAUAGGAUAGAAUGGUUAGAAAUGAGAAGGUACAUGAGGAUCACCCAUGUAAUGU [Excluse me!!!! 12 - Jieux - Exclusion 4] (puzzle: Exclusion 4)', 20.5),
  ('CUGGUCCGAGGAUAUAUUAAGUGAAACAUGAGGAUCACCCAUGUAAUUUAAUGGAUGUAAAUAGAAGGCGGACUAG [Mat - Exclusion 5 - JL mod - D39] (puzzle: Exclusion 5)', 38.9),
  ('AGAUGGCGAGGAUAUACAUGAGGAUCACCCAUGUGAGAGAAGAAAGUGAGGAAGAAAAGUAGAAGGCGCUGUCA [Mat - Exclusion 3 - Mod of Salish D11] (puzzle: Exclusion 3)', 184),
  ('AAUAAGUGAGGAUAUGGAAUAAUAAAUAAAAUAAUAAAUAACCAGAAGGCACAUGAGGAUCACCCAUGUAAUAA [JMF''s solution 3] (puzzle: Exclusion 4)', 27.4);
